Assign % Cell Death to each entry below.
measurement_notes: MMV: MTT Cytotoxicity Assay Day 3 pi, U87-CD4-CCR5 cells, % cell death @ 5mM compound
Assay type: toxicity, cell-based
run_parameters: human, u87-cd4-ccr5, 5000 µM
One number for each entry.

Here are 5 molecules together with their reported answers.
CCOc1ccc(CCNC(=O)c2cccs2)cc1OCC: 45
COc1ccc(Nc2nc(N/N=C/c3ccc(O)cc3)nc(Nc3ccc([N+](=O)[O-])cc3)n2)cc1: 11
CCOC(=O)c1ccc2[nH]c(-c3ccccc3)cc(=O)c2c1: 104
CC1CCN(Cc2ccc(NC(=O)c3cc4ccc5cccnc5c4[nH]3)cc2)CC1: 9
Cc1ccc(-c2cc3c(nn2)-c2ccccc2C3=O)cc1: 46

# map each molecule to its % Cell Death
1. CC(C)CCNCC(O)Cn1c2ccccc2c2ccccc21.Cl (stereo unspecified)
2. Cc1cc(C)c2c(c1)OCN(Cc1ccccc1Cl)C2
3. CCCCCCc1cc2cc(-c3nc4ccccc4[nH]3)c(=Nc3ccccc3C)oc2cc1O

6
-12
31

# map each molecule to its % Cell Death
1. CCCc1c(C)nc2ccc(Br)cc2c1O
2. COc1ccccc1C(=O)ON=C(N)Cc1cccc2ccccc12
3. O=C(Nc1ccc(C23CC4CC(CC(c5ccccc5)(C4)C2)C3)cc1)c1cccs1
4. Cc1ccc(OCCCCCCNCCO)c(C)c1
5. COc1ccc(-c2nonc2NC(=O)c2cccc(C)c2)cc1OC

1: 4; 2: 23; 3: 107; 4: -3; 5: 13

# map each molecule to its % Cell Death
1. COc1ccc2sc(N(Cc3cccnc3)C(=O)c3ccc(C#N)cc3)nc2c1
2. CN1CCN(c2nc(Nc3ccc(O)cc3)nc3ccccc23)CC1.Cl

1. -25
2. 11

# map each molecule to its % Cell Death
1. Cl.Cn1c(=O)n(C)c2cc(CNCCNc3ccnc4cc(Cl)ccc34)ccc21
2. CCOc1ccc(/C=C/c2nc(=O)c3ccccc3o2)cc1
3. CCCOCc1cc(CN2CCN(c3cccc(Cl)c3)CC2)c(O)c2ncccc12
4. COC(=O)c1ccc(C2C3=C(O)CC(c4ccc(F)cc4)CC3=Nc3ccccc3N2C(=O)c2ccccc2)cc1 (stereo unspecified)
5. Cc1ccnc(NC(c2cccc(OCc3ccccc3)c2)c2ccc3cccnc3c2O)c1 (stereo unspecified)
6. COc1cc(CNCCc2ccc(Cl)cc2)cc(OC)c1O

1: 46; 2: 41; 3: 24; 4: -1; 5: 19; 6: -11

* * *

measurement_notes: MMV: MTT Cytotoxicity Assay Day 7 pi of Assay #10 (NO washout), U87-CD4-CCR5 cells, % cell death @ 5mM compound
Format: toxicity, cell-based
run_parameters: human, u87-cd4-ccr5, 5000 µM
assay_readout: % Cell Death

COc1cc(C(=O)Nc2nc3c(cc4c5c(cccc53)CC4)s2)cc(OC)c1OC: 136
O=c1c2c([nH]c3ccccc13)CCCC2: -11

# map each molecule to its % Cell Death
1. CCn1c(CN2CCN(Cc3ccccc3)CC2)nc2cc(NC(=O)c3cccs3)ccc21
2. COc1cc(-c2nc(-c3ccccc3)c(-c3ccccc3)[nH]2)cc(OC)c1O
3. Cc1[nH]c(-c2ccc(F)cc2)cc1C(=O)NC1CCN(Cc2ccccc2)CC1
4. CC(C)CNC(=O)c1c(N)n(CCc2ccccc2F)c2nc3ccccc3nc12
5. CC1(c2ccccc2)Nc2ccccc2-c2nc3ccccc3n21 (stereo unspecified)
6. OCCNc1nc(Nc2ccc(Cl)c(Cl)c2)nc2ccccc12
7. Clc1ccc2[nH]c3c(NCCCN4CCOCC4)ncnc3c2c1
8. CN1c2ccccc2N(C)C1c1ccc2c(c1)OCO2

1. 10
2. 120
3. 44
4. 35
5. 29
6. 51
7. 141
8. 1

Read off the recorded % Cell Death for Cc1cc(Nc2ccc(Cl)cc2)n2nc(C(F)(F)F)nc2n1 56

* * *

measurement_notes: MMV: MTT Cytotoxicity Assay Day 7 pi of Assay #11 (NO washout), U87-CD4-CXCR4 cells, % cell death @ 5mM compound
Assay type: toxicity, cell-based
run_parameters: human, u87-cd4-cxcr4, 5000 µM
assay_readout: % Cell Death
Numbers only.

O=C(Nc1ccc(Br)cc1)Nc1cccc(Cl)c1: 64
COc1ccc(C(=O)Nc2nonc2-c2ccc(OC)c(OC)c2)cc1Cl: 67
Cl.N=c1n(CCN2CCCCC2)c2ccccc2n1CC(O)c1cccc(Br)c1 (stereo unspecified): 8
CC(C)(C)CC(C)(C)NCC(O)COc1ccc2c(c1)CCC2.Cl (stereo unspecified): 7
CCCCCn1c(=N)n(CC(O)COc2cccc(C)c2)c2ccccc21.Cl (stereo unspecified): 110

Read off the recorded % Cell Death for Cc1ccc(C2CC(C(F)(F)F)n3nc(C(=O)N4CCN(C(c5ccccc5)c5ccccc5)CC4)cc3N2)cc1 (stereo unspecified) 58

* * *

Assign inhibition to each entry below.
Test system: Human immunodeficiency virus 1
measurement_notes: MMV: HIV CXCR4-tropic env HxB2 pseudovirus assay produces luciferase signal in lieu of replicating viral particles Day 3 pi, U87-CD4-CXCR4, % inhibition at 5 mM compound
Assay type: functional
Design: dose or concentration left out as unconfirmed
run_parameters: Human immunodeficiency virus 1, HxB2, U87.CD4.CXCR4, 72 h
Give bare numbers, in %.

Here are 6 compounds together with their reported answers.
Cc1cc(NCCN2CCCCC2)c2ccc3ccccc3c2n1: 1
O=C(NCc1ccco1)C1CCN(S(=O)(=O)c2ccc(Br)cc2)CC1: 8
COc1ccc(/C=C2/SC(=Nc3ccccc3)NC2=O)cc1: 3
COc1ccc2c(=O)cc(C(Cl)(Cl)Cl)oc2c1: 8
OC(CNC1CCCCC1)Cn1c2ccc(I)cc2c2cc(I)ccc21 (stereo unspecified): 3
CCOC(=O)c1cnc2ccc(OC)cc2c1Nc1ccc(N2CCN(C)CC2)cc1: -1

# map each compound to its inhibition
1. CCOC(=O)C1=C(C)N=c2sc(=Cc3ccccc3O)c(=O)n2C1c1ccc(OC)c2ccccc12 (stereo unspecified)
2. c1ccc(CNc2nc(Nc3ccccc3)nc3ccccc23)cc1
3. CCC1(C)CC(CCNCc2ccccc2O)(c2ccc(C)cc2)CCO1 (stereo unspecified)
4. Oc1c(CN2CCN(c3ccccc3F)CC2)cc(Br)c2cccnc12
5. CCOc1ccc(Nc2c3ccccc3nc3ccccc23)cc1.Cl

[-1, 9, 0, 1, 5]

* * *

measurement_notes: MMV: MTT Cytotoxicity Assay Day 3 pi, U87-CD4-CCR5 cells, % cell death @ 5mM compound
Assay type: toxicity, cell-based
run_parameters: human, u87-cd4-ccr5, 5000 µM
assay_readout: % Cell Death
One number for each entry.

CCOC(=O)c1cnc2ccc(OC)cc2c1Nc1ccc(N2CCN(C)CC2)cc1: -13
Cc1cccc(N2C(=O)C3C(C2=O)C2(c4ccccc4)C(=O)C3(c3ccccc3)C(c3ccc4c(c3)OCO4)=C2c2ccc3c(c2)OCO3)c1 (stereo not given): 4
CN(C)c1ccc(C(O)(c2ccc(N(C)C)cc2)c2ccc(N(C)C)cc2)cc1: 2

# map each compound to its % Cell Death
1. O=c1nc(C=Cc2ccc(Cl)cc2)oc2ccccc12
2. CCOc1cc(CNC(C)C(O)c2ccccc2)cc(Cl)c1OCC (stereo not given)

50
40

* * *

measurement_notes: MMV: MTT Cytotoxicity Assay Day 7 pi of Assay #7 (compound washed out Day 1 pi), U87-CD4-CXCR4 cells, % cell death @ 5mM compound
Format: toxicity, cell-based
run_parameters: human, u87-cd4-cxcr4, 5000 µM
Assign % Cell Death to each entry below.
Answers are plain numbers.

Here are 3 molecules together with their reported answers.
CCOC(=O)c1cnc2ccc(CC)cc2c1O: -25
COc1ccc(C=C2SC(Nc3ccc(F)cc3)=NC2=O)c(OC)c1: 0
Cc1ccc2nc(C)cc(Nc3cccc(C(F)(F)F)c3)c2c1.Cl: -9

# map each molecule to its % Cell Death
1. CCN(CC)CCNc1ccnc2cc3ccccc3cc12.O=P(O)(O)O
2. COc1ccc(C(C)=O)cc1N1C(=O)C2C(C1=O)C1(c3ccccc3)C(=O)C2(c2ccccc2)C(c2ccc(C)cc2)=C1c1ccc(C)cc1 (stereo unspecified)
3. O=C(Nc1ccc(CN2CCOCC2)cc1)c1ccc(-c2ccc(Br)cc2)o1
4. COc1cccc(Nc2nc(N)c3ccccc3n2)c1.Cl
5. COc1cccc(C(=O)Nc2ccc(-c3nc4ccccc4[nH]3)cc2)c1
6. CCOc1ccccc1NC(=O)CN1CCN(C(=O)c2ccco2)CC1
7. CCCCc1c(C)nc2c(OC)cccc2c1O
8. CC(=O)c1sc(NC(=O)Nc2ccc(C)cc2C)nc1C

1: -15; 2: 14; 3: -2; 4: -5; 5: 7; 6: 38; 7: 17; 8: -18

* * *

Assign % Cell Death to each entry below.
measurement_notes: MMV: MTT Cytotoxicity Assay Day 3 pi, U87-CD4-CXCR4 cells, % cell death @ 5mM compound
Format: toxicity, cell-based
run_parameters: human, u87-cd4-cxcr4, 5000 µM
Give bare numbers.

Here are 5 compounds together with their reported answers.
Cc1ccc(Nc2nc(NCCO)c3ccccc3n2)cc1C: 28
CC1(c2ccccc2)Nc2ccccc2-c2nc3ccccc3n21 (stereo not given): 24
CC(C)(C)c1ccc(C(=O)Nc2c3c(nn2-c2cccc(Cl)c2)CSC3)cc1: -37
O=C(O)C1Cc2c([nH]c3ccccc23)C(c2ccc(Cl)cc2Cl)N1 (stereo not given): 11
O=C(Nc1cccc(-c2nc3ccccc3[nH]2)c1)c1cccc(NC(=O)c2ccco2)c1: 22

# map each compound to its % Cell Death
1. COc1ccc(C(=O)Nc2ccc3nc(N4CCCCC4)cc(C)c3c2)cc1OC
2. COCCN(C(=O)Cc1cccs1)C(C(=O)NCc1ccc(OC)cc1)c1ccc(C(C)C)cc1 (stereo not given)
3. Cc1cccc(Nc2nc(N)c3ccccc3n2)c1.Cl
4. CC(C)(C)c1ccc(C2CC3=Nc4ccccc4N(C(=O)c4ccccc4Cl)C(c4ccc(F)cc4)C3=C(O)C2)cc1 (stereo not given)
5. Cc1cc(C)c2c(c1)OCN(Cc1ccccc1Cl)C2

[23, 12, 43, 31, 31]

Origin of measurements: ChEMBL document CHEMBL3301472
